The reported numbers originate from paper PMC6616570.

# subject_of_test: ERα (Homo sapiens)
# Construct: the ERα LBD was amplified by polymerase chain reaction and subcloned into the pGEX-6P-1 vector; made in house; host or cells: Escherichia coli BL21α
# method_summary: Competitive binding assay using [3H]E2 against GST-fused ERα LBD
# condition_info: [3H][…] radioligand (5 nM), GST-ERα-LBD, mean ± SE; read-out: Binding affinity (IC50)
outcome_measure: IC50
Give the number first and the unit second.

[[record]]
compound = "Oc1ccc(C2(c3ccc(O)cc3)CCCCC2)cc1 [compound 8, bisphenol Z]"
outcome_measure = "IC50"
result = "56.9 nM"


Please examine the following record next.
Qu. Tell me the measured IC50 of Oc1ccc(C(=C(Cl)Cl)c2ccc(O)cc2)cc1 [compound 1, bisphenol C] , please.
Ans. 2.81 nM

----------
# subject_of_test: ERα (Homo sapiens, UniProt P03372)
# Construct: the ERα LBD was amplified by polymerase chain reaction and subcloned into the pGEX-6P-1 vector; made in house; host or cells: Escherichia coli BL21α
# Sequence (P03372 311-547 limits assumed): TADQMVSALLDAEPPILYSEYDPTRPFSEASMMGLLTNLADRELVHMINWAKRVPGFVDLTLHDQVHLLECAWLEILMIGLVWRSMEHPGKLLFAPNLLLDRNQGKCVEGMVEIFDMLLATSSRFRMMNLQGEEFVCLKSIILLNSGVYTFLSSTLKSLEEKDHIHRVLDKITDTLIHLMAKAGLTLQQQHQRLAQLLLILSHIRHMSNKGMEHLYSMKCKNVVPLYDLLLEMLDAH
# method_summary: Competitive binding assay using [3H]E2 against GST-fused ERα LBD
# condition_info: [3H]17β-oestradiol radioligand (5 nM), GST-ERα-LBD, mean ± SE; read-out: Binding affinity (IC50)
The entries below are paired with their reported pIC50.
Hey, just a heads up that pIC50 is the negative log base 10 of the concentration in molar.

Take a look at these entries with their results.
[[record]]
compound = "CC(c1ccccc1)(c1ccc(O)cc1)c1ccc(O)cc1 [compound 13, bisphenol AP]"
outcome_measure = "pIC50"
numeric_readout = 6.59

[[record]]
compound = "CC1(C)CC2(CC(C)(C)c3ccc(O)cc3O2)Oc2cc(O)ccc21 [compound 16, spirobicromane]"
outcome_measure = "pIC50"
numeric_readout = 6.44

[[record]]
compound = "Cc1cc(C(C)(C)c2ccc(C(C)(C)c3cc(C)c(O)c(C)c3)cc2)cc(C)c1O [compound 18]"
outcome_measure = "pIC50"
numeric_readout = 6.13


Qu. Tell me the measured pIC50 of Cc1cc(C(c2ccccc2O)c2cc(C)c(O)c(C)c2C)c(C)c(C)c1O [compound 3] , please.
Ans. 7.91
